Source: paper PMC5540273

Items are presented alongside their recorded %Inh.
# Tested on: BMX
# run parameters: concentration: 1 μM,replicates: in singlicate; n = 1;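 also: KINOMEscan kinase panel screen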
value kind: %Inh (%)

- compound: "Cn1ccc2ncnc(Oc3ccc(NC(=O)Nc4ccnc(C(F)(F)F)c4)c(Cl)c3)c21"
  value kind: "%Inh"
  readout unit: "%"
  numeric value: 17
- compound: "CC(C)c1nc(-c2cccc(NS(=O)(=O)c3ccccc3)c2)c(-c2ccnc(Nc3ccc4c(c3)CN(C)CC4)n2)s1 [GSK1649598]"
  value kind: "%Inh"
  readout unit: "%"
  numeric value: 96.2
- compound: "c1ccc(Oc2ccc(Nc3ccnc4ccc(-c5ccccn5)cc34)cc2)cc1 [GW407034]"
  value kind: "%Inh"
  readout unit: "%"
  numeric value: 44
- compound: "Cn1ccc2ncnc(Oc3ccc(NC(=O)Nc4cc(C(C)(C)C)on4)c(Cl)c3)c21"
  value kind: "%Inh"
  readout unit: "%"
  numeric value: 33
- compound: "CC(C)S(=O)(=O)N1CCN(Cc2ccc3c(c2)nc(NC(=O)c2ccsc2)n3C[C@H](O)c2ccccc2)CC1 [GW635815]"
  value kind: "%Inh"
  readout unit: "%"
  numeric value: 10
- compound: "Nc1nccc(-c2ccc3c(N)n[nH]c3c2)n1 [GSK1034945]"
  value kind: "%Inh"
  readout unit: "%"
  numeric value: 0
- compound: "C[C@@H]1CNc2c(sc3ccc4nc(-c5ccc(O)cc5)ccc4c23)C(=O)N1"
  value kind: "%Inh"
  readout unit: "%"
  numeric value: 14
- compound: "CC(=O)c1c(-c2ccncc2)[nH]c(-c2ccncc2)c1C [GW493036]"
  value kind: "%Inh"
  readout unit: "%"
  numeric value: 0
- compound: "CCNCC(Cc1ccccc1)NC(=O)c1cc(Br)c(-c2ccnc3[nH]ccc23)s1.Cl.Cl (stereo not drawn) [GSK1383280]"
  value kind: "%Inh"
  readout unit: "%"
  numeric value: 3
- compound: "COc1ccc(Nc2nccc(N3CCC(NC(=O)c4cccc(C#N)c4)C3)n2)cc1 (stereo not drawn) [GSK1379730]"
  value kind: "%Inh"
  readout unit: "%"
  numeric value: 0
- compound: "CS(=O)c1ccc(-c2coc3ccc(-c4n[nH]c(=O)o4)cc23)cc1 (stereo not drawn)"
  value kind: "%Inh"
  readout unit: "%"
  numeric value: 0
- compound: "COc1cccc(C2=C(Nc3cccc(Cl)c3)C(=O)NC2=O)c1 [SB-341556]"
  value kind: "%Inh"
  readout unit: "%"
  numeric value: 24
- compound: "CN1CCN(CCCNc2nccc(-c3c(-c4ccc(F)cc4)nn4cc(C(N)=O)ccc34)n2)CC1 [GW622475]"
  value kind: "%Inh"
  readout unit: "%"
  numeric value: 20
- compound: "COC(=O)c1cccc(NC(=O)NC2CCN(c3ccnc(Nc4cc(OC)c(OC)c(OC)c4)n3)C2)c1 (stereo not drawn) [GSK1379767]"
  value kind: "%Inh"
  readout unit: "%"
  numeric value: 30
- compound: "Cl.Cl.NC[C@H](CC1CCCCC1)NC(=O)c1ccc(-c2ccnc3[nH]ccc23)s1 [GSK1581428]"
  value kind: "%Inh"
  readout unit: "%"
  numeric value: 2
- compound: "Cc1ccn2nc(-c3ccc(F)cc3)c(-c3ccncc3)c2c1.Cl [GW457859]"
  value kind: "%Inh"
  readout unit: "%"
  numeric value: 8
- compound: "O=C(NOCC1CC1)c1cc(Br)c(F)c(F)c1Nc1ccc(I)cc1Cl"
  value kind: "%Inh"
  readout unit: "%"
  numeric value: 0
- compound: "C[C@@H]1CCN(C(=O)N2CCCC2)C[C@@H]1N(C)c1ncnc2[nH]ccc12"
  value kind: "%Inh"
  readout unit: "%"
  numeric value: 1

* * *

# Test system: MAP4K2
# run parameters: concentration: 1 μM,replicates: in singlicate; n = 1

- molecule: "CC(C)c1nc(-c2cccc(NS(=O)(=O)c3ccccc3)c2)c(-c2ccnc(Nc3ccc4c(c3)CN(C)CC4)n2)s1 [GSK1649598]"
  %Inh (%): 0
- molecule: "Cn1cc(-c2cccc3c(N)c(C(N)=O)nnc23)cn1"
  %Inh (%): 0
- molecule: "COc1ccc(Nc2nccc(N3CCC(NC(=O)c4cccc(C#N)c4)C3)n2)cc1 (centres unmarked) [GSK1379730]"
  %Inh (%): 0
- molecule: "COc1cc2ncn(-c3cc(OCC4CCCCC4)c(C(N)=O)s3)c2cc1OC [GSK204559]"
  %Inh (%): 0
- molecule: "CN(c1ccccc1CNc1nc(Nc2ccc3c(c2)CC(=O)N3)ncc1C(F)(F)F)S(C)(=O)=O"
  %Inh (%): 17
- molecule: "Cn1ccc2ncnc(Oc3ccc(NC(=O)Nc4cnn(C(C)(C)C)c4)c(Cl)c3)c21"
  %Inh (%): 4
- molecule: "Cc1n[nH]c2cc(Nc3ccnc(Nc4cccc(CN5CCOCC5)c4)n3)ccc12 [GW682569]"
  %Inh (%): 5
- molecule: "CS(=O)(=O)c1cccc(CNc2nc(Nc3ccc4c(c3)[C@@H]3C[C@@H]4CNC3=O)ncc2C(F)(F)F)c1"
  %Inh (%): 68

* * *

This section presents compounds with their documented %Inh values.
# System: ABL2
# run parameters: concentration: 1 μM,replicates: in singlicate; n = 1
value kind: %Inh

- compound: "Cn1ccc2ncnc(Oc3ccc(NC(=O)Nc4cccc(C(F)(F)F)c4)c(F)c3)c21"
  value kind: "%Inh"
  result: "29%"
- compound: "COc1cccc(OC)c1C(=O)Nc1cccc(-c2nn3ccccc3c2-c2ccnc(Nc3cccc(F)c3)n2)c1"
  value kind: "%Inh"
  result: "100%"
- compound: "CC(=O)c1c(-c2ccncc2)[nH]c(-c2ccncc2)c1C"
  value kind: "%Inh"
  result: "7%"
- compound: "O=C1NCCc2[nH]c(-c3ccncc3)cc21"
  value kind: "%Inh"
  result: "0%"
- compound: "O=C(NCC1CC1)c1ccc(-c2cc(C(=O)NC3CC3)ccc2F)cc1"
  value kind: "%Inh"
  result: "3%"
- compound: "COc1ccc(Nc2nccc(N3CCC(NC(=O)c4cccc(C#N)c4)C3)n2)cc1 (centres unmarked)"
  value kind: "%Inh"
  result: "9%"
- compound: "CCn1c(-c2nonc2N)nc2cncc(Br)c21"
  value kind: "%Inh"
  result: "0%"
- compound: "O=C(Nc1ccccc1)c1cccc(Oc2ccc3nccn3n2)c1"
  value kind: "%Inh"
  result: "3%"
- compound: "C[C@@H](Oc1cc(-n2cnc3cc(-c4ccncc4)ccc32)sc1C(N)=O)c1ccccc1Cl"
  value kind: "%Inh"
  result: "22%"
- compound: "COc1cc2nccc(Nc3ccc(Oc4ccccc4)cc3)c2cc1OC.Cl"
  value kind: "%Inh"
  result: "16%"
- compound: "Cn1ccc2ncnc(Oc3ccc(NC(=O)Nc4cncc(C(F)(F)F)c4)c(Cl)c3)c21"
  value kind: "%Inh"
  result: "27%"
- compound: "CC(C)c1nc(-c2cccc(NS(=O)(=O)c3ccccc3)c2)c(-c2ccnc(Nc3ccc4c(c3)CN(C)CC4)n2)s1"
  value kind: "%Inh"
  result: "98.7%"
- compound: "c1ccc(Oc2ccc(Nc3ccnc4ccc(-c5ccccn5)cc34)cc2)cc1"
  value kind: "%Inh"
  result: "17%"
- compound: "Cn1ccc2ncnc(Oc3ccc(NC(=O)Nc4cnn(C(C)(C)C)c4)c(Cl)c3)c21"
  value kind: "%Inh"
  result: "11%"

* * *

Recorded %Inh by entry
# System: HASPIN
# Construct: gene GSG2
# run parameters: concentration: 1 μM,replicates: in singlicate; n = 1
value kind: %Inh (%)

- molecule: "COc1cc(Nc2nccc(N3CCC(NC(=O)c4cccc(C#N)c4)C3)n2)cc(OC)c1OC (centres unmarked) [GSK1379751]"
  numeric value: 8
- molecule: "Cc1cccc(-c2nc(Nc3ccncc3)c3sccc3n2)n1 [GW869641]"
  numeric value: 44
- molecule: "OCCn1cc(-c2cnc3nnn(Cc4ccc5ncccc5c4)c3n2)cn1"
  numeric value: 0
- molecule: "CCn1c(-c2nonc2N)nc2cncc(CNC3CCNCC3)c21.Cl [SB-747651]"
  numeric value: 73
- molecule: "COc1cccc(OC)c1C(=O)Nc1cccc(-c2nn3ccccc3c2-c2ccnc(Nc3cccc(F)c3)n2)c1 [GSK361065]"
  numeric value: 0

* * *

# Test system: CAMK1D
# run parameters: concentration: 1 μM,replicates: in singlicate; n = 1
value kind: %Inh

- compound structure: "CN(c1ccccc1CNc1nc(Nc2ccc3c(c2)CC(=O)N3)ncc1C(F)(F)F)S(C)(=O)=O"
  study target: "CAMK1D"
  result: "0%"
- compound structure: "Cl.Nc1n[nH]c2cc(-c3ccccn3)ccc12"
  study target: "CAMK1D"
  result: "25%"
- compound structure: "COc1cccc(C2=C(Nc3cccc(Cl)c3)C(=O)NC2=O)c1"
  study target: "CAMK1D"
  result: "36%"
- compound structure: "CN(c1cccc(CNc2nc(Nc3ccc4c(c3)CC(=O)N4)ncc2C(F)(F)F)c1)S(C)(=O)=O"
  study target: "CAMK1D"
  result: "14%"
- compound structure: "NC(=O)Nc1sc(-c2ccc(F)cc2)cc1C(N)=O"
  study target: "CAMK1D"
  result: "43%"
